Test system: Rattus norvegicus
Test summary: Compound administered orally at a dose of 81 mg/kg was evaluated for salidiuretic activity measured as sodium ion excretion in Rat
Type: ADME, organism-based, Urine
Set-up: dose 81 mg/kg, route oral; unit not given beside the values
Test parameters: in vivo, po
Measurement label: Diuretic activity
Could you keep your reply to the number by itself?

> print(dat)
                          molecule   target.or.system  measurement.label  observed.value
1  COc1c(C(C)(C)C)cc(I)c(O)c1CN.Cl  Rattus norvegicus  Diuretic activity             2.9
2       CCc1c(Cl)cc(CN)c(O)c1Cl.Cl  Rattus norvegicus  Diuretic activity             2.4

Data request: Given CCC(C)c1cc(I)c(O)c(CN)c1.Cl (centres undefined) , state its recorded Diuretic activity.
Data returned: 2.9

Data request: Report Diuretic activity for CCc1c(Cl)c(C)c(Cl)c(O)c1CN.Cl please.
Data returned: 1.5

Data request: Could you share which Diuretic activity value was measured for Cl.NCc1c(O)c(Cl)cc(Cl)c1Cl ?
Data returned: 2.9

Data request: Could you share which Diuretic activity value was measured for CCC(C)(C)c1cc(I)c(O)c(CN)c1.Cl ?
Data returned: 2.9

Data request: Form field: reported Diuretic activity of Cc1c(Cl)c(C(C)(C)C)c(Cl)c(O)c1CN.Cl
Data returned: 2.9

Data request: Need Diuretic activity, item CCOc1c(Cl)c(O)c(CN)c(OCC)c1Cl.Cl
Data returned: 2.9

Data request: Which measured Diuretic activity value corresponds to Cc1cc(C)c(O)c(CN)c1C.Cl ?
Data returned: 2.4

Data request: Given the entry CC(C)(C)c1c(Cl)cc(CN)c(O)c1Cl.Cl , report its measured Diuretic activity.
Data returned: 2.9

Data request: I would be grateful if you could share the reported Diuretic activity for Cc1cc(Cl)c(O)c(CN)c1C.Cl .
Data returned: 2.9

Data request: Need Diuretic activity, item C=CCc1cc(CN)c(O)c(OC)c1.Cl
Data returned: 2.9

Data request: Returns the measured Diuretic activity for the input molecule. Input: NCc1cc(Cl)cc(Cl)c1O
Data returned: 2.4

Data request: What value of Diuretic activity has been recorded for this entry: CCOC(=O)c1cc(I)c(O)c(CN)c1.Cl
Data returned: 2.4

Data request: Need Diuretic activity, item CC(C)(C)c1cc(CN)c(O)c(Oc2ccc(Cl)cc2)c1.Cl
Data returned: 2.4

Data request: Diuretic activity lookup needed for CCc1ccc(O)c(CN)c1.Cl , thanks.
Data returned: 1.5

Data request: Entry Cl.NCc1cc(I)cc(I)c1O : reported Diuretic activity = ?
Data returned: 2.9
